Test system: HEK293 cells
quantity: effect on viability of control cells at increasing concentrations

# compound, experimentalResult
rows = [
    ("O=c1cc(-c2ccc(O)cc2)oc2cc(O)cc(O)c12 [Apigenin, apigenin]", "cytotoxic"),
    ("O=c1c(O)c(-c2ccc(O)cc2)oc2cc(O)cc(O)c12 [Kaempferol, kaempferol]", "proliferative"),
    ("NC(N)=NC(=O)c1nc(Cl)c(N2CCCCCC2)nc1N [HMA, 5-(N,N-hexamethylene)amiloride]", "cytotoxic"),
    ("O=c1c(O)c(-c2ccc(O)c(O)c2)oc2cc(O)cc(O)c12 [Quercetin, quercetin]", "proliferative"),
    ("O=c1c(-c2ccc(O)cc2)coc2cc(O)cc(O)c12 [Genistein, genistein]", "proliferative"),
]

* * *

Tested on: HEK293 cells
experimentalContext: human
// values below are reported MTT pRK control

# compound, testTarget, MTT pRK control
rows = [
    ("O=C(O[C@@H]1Cc2c(O)cc(O)cc2O[C@@H]1c1cc(O)c(O)c(O)c1)c1cc(O)c(O)c(O)c1 [EGCG, epigallocatechin gallate]", "HEK293 cells", "5–50 ↑"),
    ("COc1ccc(-c2cc(=O)c3c(OC)c(OC)c(OC)c(OC)c3o2)cc1OC", "HEK293 cells", "5–50 ↑"),
    ("NC(N)=NC(=O)c1nc(Cl)c(N2CCCCCC2)nc1N [HMA, 5-(N,N-hexamethylene)amiloride]", "HEK293 cells", "10–50 ↓"),
    ("O=c1c(-c2ccc(O)cc2)coc2cc(O)cc(O)c12", "HEK293 cells", "20–50 ↑"),
    ("O=c1c(O)c(-c2ccc(O)cc2)oc2cc(O)cc(O)c12", "HEK293 cells", "5–50 ↑"),
]
